Target: laccase from Trametes versicolor
Construct: gene LCC2; PDB 1GYC (laccase 2) used for docking only
Test: syringaldazine oxidation at […] nm, Lineweaver-Burk
Format: biochemical
Details: McIlvaine buffer pH 5.3, 25 °C, 30 min preincubation, methanol co-solvent, non-competitive
Kindly supply the reported pKi values for the records listed here.
Numbers only, as −log10 of the molar value.

[
  {
    "Compound": "COc1cccc(C(=O)N/N=C/c2cc(C)cc(C(C)(C)C)c2O)c1",
    "Assay System": "laccase from Trametes versicolor",
    "pKi": 4.76
  }
]

Value sought for every listed molecule: pKi.
1. CC(C)(C)c1cc(/C=N/NC(=O)c2ccc3ccccc3c2O)c(O)c(C(C)(C)C)c1
2. O=C(N/N=C/c1cccc(-c2ccccc2)c1O)c1cc(O)cc(O)c1
3. CC(C)(C)c1cc(/C=N/NC(=O)c2ccccc2O)c(O)c(C(C)(C)C)c1

4.79
4.16
4.28

====

Molecular target: laccase from Trametes versicolor
Construct: gene LCC2; PDB 1GYC (laccase 2) used for docking only
Assay: syringaldazine oxidation at […] nm, Lineweaver-Burk
Format: biochemical
Conditions: McIlvaine buffer pH 5.3, 25 °C, 30 min preincubation, methanol co-solvent, competitive
Value Kind: pKi
Answers are plain numbers, as −log10 of the molar value.

Record excerpt, results attached:
[
  {
    "Compound": "CC(C)(C)c1cc(/C=N/NC(=O)c2cc(O)cc(O)c2)c(O)c(C(C)(C)C)c1",
    "Assay System": "laccase from Trametes versicolor",
    "Val": 4.25
  },
  {
    "Compound": "CC(C)(C)c1cc(/C=N/NC(=O)c2cccc(O)c2)c(O)c(C(C)(C)C)c1",
    "Assay System": "laccase from Trametes versicolor",
    "Val": 4.72
  },
  {
    "Compound": "COc1ccc(C(=O)N/N=C/c2cc(C)cc(C(C)(C)C)c2O)cc1",
    "Assay System": "laccase from Trametes versicolor",
    "Val": 4.59
  },
  {
    "Compound": "Cc1cc(/C=N/NC(=O)c2cc(O)cc(O)c2)c(O)c(C(C)(C)C)c1",
    "Assay System": "laccase from Trametes versicolor",
    "Val": 4.49
  },
  {
    "Compound": "CC(C)(C)c1cccc(/C=N/NC(=O)c2cccc(O)c2)c1O",
    "Assay System": "laccase from Trametes versicolor",
    "Val": 4.45
  }
]

Value sought for every listed molecule: pKi.
1. CC(C)(C)c1cccc(/C=N/NC(=O)c2cc(O)cc(O)c2)c1O
2. Cc1cc(/C=N/NC(=O)c2ccccc2)c(O)c(C(C)(C)C)c1

1: 4.42; 2: 4.09

====

Biological target: laccase from Trametes versicolor
Construct: gene LCC2; PDB 1GYC (laccase 2) used for docking only
Test: syringaldazine oxidation at […] nm, Lineweaver-Burk
Assay type: biochemical
Details: McIlvaine buffer pH 5.3, 25 °C, 30 min preincubation, methanol co-solvent, mixed type, non-competitive component
Kindly supply the reported Ki values for the records listed here.
Form field: result (number plus unit)

Record excerpt, results attached:
[
  {
    "Compound": "O=C(N/N=C/c1cccc(-c2ccccc2)c1O)c1cccc(O)c1",
    "Value Kind": "Ki",
    "Val": "139 µM"
  },
  {
    "Compound": "Cc1cc(/C=N/NC(=O)c2ccc3ccccc3c2O)c(O)c(C(C)(C)C)c1",
    "Value Kind": "Ki",
    "Val": "8 µM"
  },
  {
    "Compound": "CC(C)(C)c1cccc(/C=N/NC(=O)c2ccc3ccccc3c2O)c1O",
    "Value Kind": "Ki",
    "Val": "55.6 µM"
  }
]

Please look up its Ki: O=C(N/N=C/c1cccc(-c2ccccc2)c1O)c1ccc2ccccc2c1O
24.3 µM
